Pigweed, Palmer plant response rating: recorded values
tested on: pigweed, palmer; experiment: Test C preemergence; type: in vivo, Amaranthus palmeri; conditions: Test C, preemergence, 125 g ai/ha; 0 to 100 scale (0 no effect, 100 complete control)

INSERT INTO results (molecule, endpoint_label, value_reported) VALUES
  ('Cc1ccc(-n2cnc(C(C)C)n2)cc1C(=O)N1CC(C(F)(F)F)Oc2c(Cl)cccc21 (single isomer, unassigned) [Compound 292]', 'Pigweed, Palmer plant response rating', 100),
  ('CCc1ncn(-c2ccc(OC)c(C(=S)N3C[C@H](C)Oc4c(C)cccc43)c2)n1', 'Pigweed, Palmer plant response rating', 100),
  ('Cc1cccc2c1O[C@@H](C)CN2C(=O)c1cccc(-n2cnc(C#N)c2)c1', 'Pigweed, Palmer plant response rating', 0),
  ('CCc1c(C)cc(-n2cnc(C(C)C)n2)cc1C(=O)N1C[C@H](C)Oc2c(Cl)cccc21', 'Pigweed, Palmer plant response rating', 0);

// next entry
Record CC(C)c1cc(C(=O)N2C[C@H](C)Oc3c(Cl)cccc32)cc(-n2cncn2)c1 . Reported Pigweed, Palmer plant response rating: 60

----------
tested on: oat, wild; assay: Test A preemergence; format: in vivo, Avena fatua; conditions: 500 g ai/ha, 0 to 100 scale (0 no effect, 100 complete control), 10 days
Parameter threshold = 80. Response is 1.0 when Plant response rating, Oat, Wild meets or exceeds it, else 0.0.

Request: Decide: is the reported value of Plant response rating, Oat, Wild for CC(C)c1ncn(-c2cccc(C(=O)N3C[C@H](C)Oc4c(Cl)cccc43)c2)n1 [Compound 78] equal to or greater than 80?
Result: 1.0

Request: # check: Plant response rating, Oat, Wild of CCc1ncn(-c2cccc(C(=O)N3C[C@H](C)Oc4c(C)cccc43)c2)n1 [Compound 71] is greater than or equal to 80
Result: 1.0

Request: Decide: is the reported value of Plant response rating, Oat, Wild for C#CCOc1ccc(-n2cnc(C(C)C)n2)cc1C(=O)N1C[C@H](C)Oc2c(Cl)cccc21 [Compound 107] equal to or greater than 80?
Result: 0.0

Request: Determine whether measured Plant response rating, Oat, Wild meets or exceeds 80 for CCCc1ncn(-c2cccc(C(=O)N3C[C@H](C)Oc4c(C)cccc43)c2)n1 [Compound 72]
Result: 1.0

Request: Does C[C@H]1CN(C(=O)c2cccc(-n3cnc(Br)n3)c2)c2cccc(Cl)c2O1 [Compound 85] have a reported Plant response rating, Oat, Wild of at least 80?
Result: 0.0

Request: Quick check, Plant response rating, Oat, Wild >= 80? CCc1cccc2c1OC(C)CN2C(=O)c1cccc(-n2cncn2)c1 (stereo not shown) [Compound 43]
Result: 1.0

Request: Given CC1CN(C(=O)c2cccc(-n3cncn3)c2)c2c(F)cccc2O1 (stereo not shown) [Compound 28] , state whether its Plant response rating, Oat, Wild is at least 80.
Result: 0.0

Request: Given the entry COc1ccc(-n2cnc(C)n2)cc1C(=O)N1C[C@H](C)Oc2c(Cl)cccc21 [Compound 89] , answer whether its Plant response rating, Oat, Wild meets or surpasses 80.
Result: 1.0

Request: Reported Plant response rating, Oat, Wild at or above 80? Cc1cccc2c1O[C@@H](C)CN2C(=O)c1cccc(-n2cnc(C(C)C)n2)c1 [Compound 55]
Result: 1.0
